Property: Ki/K'i; scope: individual molecules
- Protocol Description: Extent of enhancement of inhibitory potency of compound against carboxypeptidase A caused by zinc ion.

- Molecule: "O=C(O)C(Cc1ccccc1)c1c[nH]cn1 (centres undefined)"
  Ki/K'i: 0.53
- Molecule: "O=C(O)C(CCCc1c[nH]cn1)Cc1ccccc1 (centres undefined)"
  Ki/K'i: 41.7
- Molecule: "O=C(O)C(CCc1c[nH]cn1)Cc1ccccc1 (centres undefined)"
  Ki/K'i: 51.7
- Molecule: "O=C(O)C(Cc1ccccc1)Cc1c[nH]cn1 (centres undefined)"
  Ki/K'i: 212

###

- Experimental Target: Carboxypeptidase A1 (Bos taurus) (UniProt P00730)
- Sequence (P00730 whole entry): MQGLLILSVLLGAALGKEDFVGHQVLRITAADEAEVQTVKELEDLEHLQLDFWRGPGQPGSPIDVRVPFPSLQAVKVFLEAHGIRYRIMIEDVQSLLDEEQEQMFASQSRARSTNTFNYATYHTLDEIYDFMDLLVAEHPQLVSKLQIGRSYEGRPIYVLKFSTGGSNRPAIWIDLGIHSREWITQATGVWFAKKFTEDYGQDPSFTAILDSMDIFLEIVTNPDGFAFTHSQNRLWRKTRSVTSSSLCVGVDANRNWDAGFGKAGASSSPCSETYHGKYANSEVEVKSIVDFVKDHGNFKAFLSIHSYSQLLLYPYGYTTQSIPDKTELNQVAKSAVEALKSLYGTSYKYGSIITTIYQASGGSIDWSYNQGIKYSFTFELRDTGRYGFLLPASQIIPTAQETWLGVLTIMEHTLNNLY
- Protocol Description: Apparent inhibitory constant of carboxypeptidase A (CPA) in presence of Zinc ion
Listed below: K'i values for each entry.
Readout Type: K'i (µM)

- Molecule: "O=C(O)C(Cc1ccccc1)Cc1c[nH]cn1 (centres undefined)"
  Readout Type: "K'i"
  Result Units: "µM"
  Measured Number: 1.01
- Molecule: "O=C(O)C(CCCc1c[nH]cn1)Cc1ccccc1 (centres undefined)"
  Readout Type: "K'i"
  Result Units: "µM"
  Measured Number: 18
- Molecule: "O=C(O)C(CCc1c[nH]cn1)Cc1ccccc1 (centres undefined)"
  Readout Type: "K'i"
  Result Units: "µM"
  Measured Number: 0.29
- Molecule: "O=C(O)C(Cc1ccccc1)c1c[nH]cn1 (centres undefined)"
  Readout Type: "K'i"
  Result Units: "µM"
  Measured Number: 0.49
